A short record of pIC50 observed with UniProt P55263 follows.
Sequence (P55263 whole entry): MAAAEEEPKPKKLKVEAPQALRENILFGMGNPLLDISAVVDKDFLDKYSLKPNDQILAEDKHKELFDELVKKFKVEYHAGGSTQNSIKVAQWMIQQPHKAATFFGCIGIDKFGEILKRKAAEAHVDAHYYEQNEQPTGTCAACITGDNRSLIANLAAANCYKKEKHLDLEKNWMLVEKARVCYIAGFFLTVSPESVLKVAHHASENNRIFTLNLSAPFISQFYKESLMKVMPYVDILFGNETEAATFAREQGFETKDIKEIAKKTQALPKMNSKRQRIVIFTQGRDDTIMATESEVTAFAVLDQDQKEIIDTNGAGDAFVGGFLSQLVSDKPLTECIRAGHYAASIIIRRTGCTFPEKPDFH
pIC50: −log10 of the molar value.

# smiles_repr, censoring_sign, pIC50
records = [
    ("CN(C)c1ccc(C#Cc2ncnc3n[nH]c(-c4ccccc4)c23)cn1", "=", 7.00),
    ("Cn1nc(-c2cccc(Br)c2)c2c(C#Cc3ccc(N4CCOCC4)nc3)ncnc21", "=", 7.09),
    ("Brc1cccc(-c2nn(Cc3ccccc3)c3ncnc(C#Cc4ccc(N5CCOCC5)nc4)c23)c1", "<", 6.00),
]

The origin of these recorded values is ChEMBL document CHEMBL1138819.
